Where do these numbers come from? They come from patent US20180085455A1.

Below, each of the binders is paired with its reported Inhibition of ErbB3 phosphorylation, IC50 (HRG-stimulated MCF7 cells) value.
targetOrTestSystem: ErbB3 on cancer cells (UniProt P21860 20-1342, limits assumed)
assayExplanation: cell-based or functional assay
Value expressed in nM; do not type the unit.

Guide cases for Inhibition of ErbB3 phosphorylation, IC50 (HRG-stimulated MCF7 cells), answers given:
[[record]]
binder = "472S2 (antibody, V domains shown, IgG1 (Selexis 085 vector, CHO)) VH: EVQLLESGGGLVQPGGSLRLSCAASGFTFSWYDLAWVRQAPGKGLEWVSGISYDGGNTYYADSVKGRFTISRDNSKNTLYLQMNSLRAEDTAVYYCARDPSWCLQDLCYYADGMDVWGQGTLVTVSS VL: QSVLTQPPSASGTPGQRVTISCSGSSSNIGSNSVSWYQQLPGTAPKLLIYADSNRPSGVPDRFSGSKSGTSASLAISGLRSEDEADYYCGSWDYSLSGYVFGGGTKLTVLG"
measurementunit = "nM"
assayvalue = 0.148

[[record]]
binder = "442S1 (antibody, V domains shown, IgG1 (Selexis 085 vector, CHO)) VH: EVQLLESGGGLVQPGGSLRLSCAASGFTFSDYDMSWVRQAPGKGLEWVSTIDLDSGSIYYADSVQGRFTISRDNSKNTLYLQMNSLRAEDTAVYYCAKDLHMGPEGPFDYWGQGTLVTVSS VL: QSVLTQPPSASGTPGQRVTISCSGSSSNIGSNSVSWYQQLPGTAPKLLIYSDNHRPSGVPDRFSGSKSGTSASLAISGLRSEDEADYYCQGWDTSLSGHVFGGGTKLTVLG"
measurementunit = "nM"
assayvalue = 0.222

[[record]]
binder = "472P (antibody, V domains shown, IgG1 (Selexis 085 vector, CHO); also called anti-ErbB3 lead antibody 472P) VH: EVQLLESGGGLVQPGGSLRLSCAASGFTFSDYDMSWVRQAPGKGLEWVSGISYDGGNTYYADSVKGRFTISRDNSKNTLYLQMNSLRAEDTAVYYCARDPSWCLQDLCYYADGMDVWGQGTLVTVSS VL: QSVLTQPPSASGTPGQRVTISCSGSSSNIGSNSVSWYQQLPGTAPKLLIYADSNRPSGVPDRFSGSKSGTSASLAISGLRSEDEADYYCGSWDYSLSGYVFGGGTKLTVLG"
measurementunit = "nM"
assayvalue = 1.45


# evaluate next
Entry 442M6 (antibody, V domains shown, IgG1 (Selexis 085 vector, CHO)) VH: EVQLLESGGGLVQPGGSLRLSCAASGFTFSDYDMSWVRQAPGKGLEWVSSIEPDSGSTDYADSVQGRFTISRDNSKNTLYLQMNSLRAEDTAVYYCAKDRHMWPEGPFDYWGQGTLVTVSS VL: QSVLTQPPSASGTPGQRVTISCSGSSSNIGSNSGSWYQQLPGTAPKLLIYADNWRPSGVPDRFSGSKSGTSASLAISGLRSEDEADYYCAAWDSSLSGYVFGGGTKLTVLG ; Inhibition of ErbB3 phosphorylation, IC50 (HRG-stimulated MCF7 cells) = 0.271
